- assayed-system: F508delCFTR (Homo sapiens, UniProt P13569, DEL508-508)
- Construct: expressed in transfected cells; host or cells: CFBE41o- human lung-derived epithelial cells (CFBE4lo-F508delCFTR-HRP), doxycycline-inducible
- Sequence (P13569 with tags, fused parts or gaps DEL508-508): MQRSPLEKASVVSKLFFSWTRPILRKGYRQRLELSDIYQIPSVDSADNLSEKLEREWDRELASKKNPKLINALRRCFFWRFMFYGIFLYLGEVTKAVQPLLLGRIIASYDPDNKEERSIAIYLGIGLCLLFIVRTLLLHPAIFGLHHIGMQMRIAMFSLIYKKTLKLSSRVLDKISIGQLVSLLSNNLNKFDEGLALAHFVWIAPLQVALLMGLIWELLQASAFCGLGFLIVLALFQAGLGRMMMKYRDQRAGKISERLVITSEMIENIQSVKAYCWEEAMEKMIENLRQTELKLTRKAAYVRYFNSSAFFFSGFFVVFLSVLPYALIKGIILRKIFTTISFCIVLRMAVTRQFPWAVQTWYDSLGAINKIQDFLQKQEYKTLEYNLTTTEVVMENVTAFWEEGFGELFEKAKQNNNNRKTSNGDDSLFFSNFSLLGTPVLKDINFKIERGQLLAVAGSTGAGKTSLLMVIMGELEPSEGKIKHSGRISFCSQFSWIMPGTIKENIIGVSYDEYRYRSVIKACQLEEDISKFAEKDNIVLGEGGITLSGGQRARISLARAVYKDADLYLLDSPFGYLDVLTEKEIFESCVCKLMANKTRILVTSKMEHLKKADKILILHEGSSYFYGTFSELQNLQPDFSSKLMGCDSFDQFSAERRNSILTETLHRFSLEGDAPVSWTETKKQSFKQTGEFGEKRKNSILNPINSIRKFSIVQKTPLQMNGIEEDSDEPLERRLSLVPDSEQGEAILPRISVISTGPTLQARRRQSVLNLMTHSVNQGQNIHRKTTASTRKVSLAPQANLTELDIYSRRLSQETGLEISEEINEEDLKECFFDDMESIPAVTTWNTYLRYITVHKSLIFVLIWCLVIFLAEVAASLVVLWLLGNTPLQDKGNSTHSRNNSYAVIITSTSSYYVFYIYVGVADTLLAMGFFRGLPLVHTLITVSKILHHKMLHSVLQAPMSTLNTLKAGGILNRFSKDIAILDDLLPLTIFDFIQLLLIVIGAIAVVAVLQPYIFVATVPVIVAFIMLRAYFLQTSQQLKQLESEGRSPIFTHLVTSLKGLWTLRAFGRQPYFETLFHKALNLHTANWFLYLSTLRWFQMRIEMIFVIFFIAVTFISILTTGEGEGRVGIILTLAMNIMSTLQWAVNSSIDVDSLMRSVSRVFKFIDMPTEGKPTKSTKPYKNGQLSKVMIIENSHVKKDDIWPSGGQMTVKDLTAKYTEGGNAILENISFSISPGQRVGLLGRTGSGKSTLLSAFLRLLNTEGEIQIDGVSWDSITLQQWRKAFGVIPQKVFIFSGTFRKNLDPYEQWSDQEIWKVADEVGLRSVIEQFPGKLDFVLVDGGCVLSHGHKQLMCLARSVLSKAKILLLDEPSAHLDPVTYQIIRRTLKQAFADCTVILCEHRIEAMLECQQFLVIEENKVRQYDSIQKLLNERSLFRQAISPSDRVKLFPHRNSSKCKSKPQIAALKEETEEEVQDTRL
- assay-name: Cell Surface Expression-Horse Radish Peroxidase (CSE-HRP) Assay
- Assay type: cell-based
- stated-conditions: test compound without co-corrector; read-out: EC50 (without co-corrector)
pEC50: −log10 of the molar value.
recorded-endpoint: pEC50

The cases that follow already have their pEC50 on record.
>  <molecule>
COc1ccc(C(C)(C)C)cc1CN[C@H]1[C@H](C(C)(C)C)[C@@H](C(=O)O)N(C(=O)c2cnn3ccccc23)[C@H]1c1ccccc1

>  <assayed-system>
F508delCFTR (Homo sapiens, UniProt P13569, DEL508-508)

>  <recorded-endpoint>
pEC50

>  <test-result>
5.00 to 6.00

$$$$
>  <molecule>
COc1ccc(C(C)(C)C)cc1CN[C@H]1[C@H](C(C)(C)C)[C@@H](C(=O)O)N(C(=O)[C@H]2CCC[C@H](OC)C2)[C@H]1c1cccnc1N(C)C (relative stereo)

>  <assayed-system>
F508delCFTR (Homo sapiens, UniProt P13569, DEL508-508)

>  <recorded-endpoint>
pEC50

>  <test-result>
5.00 to 6.00

$$$$

// moving on: another record for pEC50
Ask: pEC50 of COc1cccc([C@@H]2[C@H](NCc3ccccc3OC(F)F)[C@@H](C(C)(C)C)[C@H](C(=O)O)N2C(=O)C2CCCCO2)n1 (mixture of isomers) on F508delCFTR (Homo sapiens, UniProt P13569, DEL508-508)?
Reply: 5.00 to 6.00

###

- assayed-system: F508delCFTR (Homo sapiens, UniProt P13569, DEL508-508)
- Construct: expressed in transfected cells; host or cells: CFBE41o- human lung-derived epithelial cells (CFBE4lo-F508delCFTR-HRP), doxycycline-inducible
- assay-name: Cell Surface Expression-Horse Radish Peroxidase (CSE-HRP) Assay;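 for Maximum % activity (without co-corrector): percent of the 2 µM on-plate positive control corrector response above DMSO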
- Assay type: cell-based
- stated-conditions: test compound without co-corrector; maximum at any tested concentration, normalized to on-plate positive control; read-out: Maximum % activity (without co-corrector)
Catalogue of Emax values

The cases that follow already have their Emax on record.
>  <molecule>
COc1ccc(C(F)(F)F)cc1CN[C@@H]1[C@@H](C(C)(C)C)[C@@H](C(=O)O)N(C(=O)[C@H](OC)c2ccccc2)[C@H]1c1ccccc1 [II-395]

>  <test-result>
< 100%

$$$$
>  <molecule>
CC(C)OC(=O)N1[C@H](C(=O)O)[C@@H](C(C)(C)C)[C@H](NCC2CCCN(C(=O)OCc3ccccc3)C2)[C@@H]1c1ccccc1 (stereo partly drawn) [II-583]

>  <test-result>
100 to 200%

$$$$

Ask: Emax of COc1ccc(C(C)(C)C)cc1CN[C@H]1[C@H](C(C)(C)C)[C@@H](C(=O)O)N(C(=O)C2CCc3cc(F)ccc3O2)[C@H]1c1cccnc1N(C)C (stereo partly drawn) [III-210] on F508delCFTR (Homo sapiens, UniProt P13569, DEL508-508)?
Reply: < 100%

Ask: Record: COc1ccc(C(C)(C)C)cc1CN[C@@H]1[C@@H](C(C)(C)C)[C@@H](C(=O)O)N(C(=O)[C@H](OC)c2ccccc2)[C@H]1c1ccccc1 [II-393]
Reply: < 100%

Ask: Record: COc1cc(C(F)(F)F)ccc1CN[C@@H]1[C@@H](C(C)(C)C)[C@H](C(=O)O)N(C(=O)C2CCCCC2)[C@@H]1c1ccccc1OC [III-95]
Reply: < 100%

Ask: Record: COc1ccc(C(C)(C)C)cc1CN[C@H]1[C@H](C(C)(C)C)[C@@H](C(=O)O)N(C(=O)[C@@H]2CCCCO2)[C@H]1c1ccccc1F [II-460]
Reply: > 200%
